- measurement target: Solute carrier family 22 member 1 (Mus musculus, UniProt O08966)
- Sequence (O08966 whole entry): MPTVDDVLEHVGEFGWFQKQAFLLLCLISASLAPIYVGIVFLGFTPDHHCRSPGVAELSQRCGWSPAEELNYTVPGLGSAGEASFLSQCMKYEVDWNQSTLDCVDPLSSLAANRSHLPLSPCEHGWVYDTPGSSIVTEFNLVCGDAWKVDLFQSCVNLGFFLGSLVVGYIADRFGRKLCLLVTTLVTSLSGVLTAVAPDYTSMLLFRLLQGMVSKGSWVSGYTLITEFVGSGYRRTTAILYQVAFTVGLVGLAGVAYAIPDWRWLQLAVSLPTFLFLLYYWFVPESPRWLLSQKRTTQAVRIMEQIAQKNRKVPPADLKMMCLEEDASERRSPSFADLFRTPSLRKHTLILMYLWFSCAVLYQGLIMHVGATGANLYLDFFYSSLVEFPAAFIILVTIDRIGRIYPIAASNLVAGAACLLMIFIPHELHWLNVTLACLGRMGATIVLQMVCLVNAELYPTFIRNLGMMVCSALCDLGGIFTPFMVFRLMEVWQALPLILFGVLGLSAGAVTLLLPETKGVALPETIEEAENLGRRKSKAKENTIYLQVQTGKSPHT
- experimental protocol: TP_TRANSPORTER: inhibition of TEA uptake (TEA: 140 uM, Procainamide: 10000 uM) in Xenopus laevis oocytes
- Assay type: functional, cell-based, Oocyte
- Set-up: scale not given: the % may be the effect or the level left
- settings: probe TEA (140 uM), read-out: Activity
assay endpoint: activity at 10000 uM

[[record]]
compound = "CCN(CC)CCNC(=O)c1ccc(N)cc1 [PROCAINAMIDE]"
measurement_target = "Solute carrier family 22 member 1 (Mus musculus, UniProt O08966)"
recorded_result = "30.1%"


###

- measurement target: Solute carrier family 22 member 1 (Mus musculus, UniProt O08966)
- experimental protocol: in vitro
- settings: xenopus laevis, probe TEA (140 uM)
- Description: TP_TRANSPORTER: inhibition of TEA uptake (TEA: 140 uM, Thiamine: 1000 uM) in Xenopus laevis oocytes
assay endpoint: activity at 1000 µM (%)

[[record]]
smiles_string = "Cc1ncc(C[n+]2csc(CCO)c2C)c(N)n1"
recorded_result = 12.7

